Target: human CSNK1A1 (Homo sapiens (Human))
Sequence (P48729 whole entry): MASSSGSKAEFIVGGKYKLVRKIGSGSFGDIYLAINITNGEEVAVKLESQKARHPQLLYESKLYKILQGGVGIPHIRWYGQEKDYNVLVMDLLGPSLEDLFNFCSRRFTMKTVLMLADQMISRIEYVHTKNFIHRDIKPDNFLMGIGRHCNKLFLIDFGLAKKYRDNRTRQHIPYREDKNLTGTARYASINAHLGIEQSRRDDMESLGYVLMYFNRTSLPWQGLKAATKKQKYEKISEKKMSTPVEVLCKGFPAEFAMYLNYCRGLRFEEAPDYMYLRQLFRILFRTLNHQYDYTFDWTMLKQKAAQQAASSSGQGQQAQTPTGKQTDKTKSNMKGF
Test: CSNK1A1 Assay 2 (ADP-Glo, 1 μM ATP)
Assay type: biochemical
Conditions: substrate biotin-Ahx-KRRRAL-pS-VASLPGL, read-out: CSNK1A1 Assay 2 IC50 [mol/l] (median)
Record form. Attribute: IC50. Fill in for each entry.
Could you give me the number in nM? Just the number is fine.

// query IC50 value for entry O=C1NC2(CCC2)Cc2[nH]c(-c3ccnc(NC(=O)C(CC(F)F)c4ccc(F)cc4)c3)c(Nc3ccccc3)c21 (single isomer, unassigned; (-)) [Example 56]
19.2

What value of IC50 has been recorded for this entry: CC(C(=O)Nc1cc(-c2[nH]c3c(c2Nc2ccccc2)C(=O)NC(C)(C)C3)ccn1)c1ccc(F)cc1 (single isomer, unassigned; (+)) [Example 40]
4.59

Look at this compound and give its reported IC50. CC(C(=O)Nc1cc(-c2[nH]c3c(c2Nc2ccccc2)C(=O)N(C)CC3)ccn1)c1ccncc1 (single isomer, unassigned) [Example 74]
33.9

Name the reported IC50 value associated with the compound CCC(C(=O)Nc1cc(-c2[nH]c3c(c2Nc2ccccc2)C(=O)N(C)CC3)ccn1)c1ccc(F)cc1 (single isomer, unassigned; (+)) [Example 77]
2.12

Look at this compound and give its reported IC50. CC1Cc2[nH]c(-c3ccnc(NC(=O)Cc4ccc(F)cc4)c3)c(Nc3ccccc3F)c2C(=O)N1C (single isomer, unassigned; (-)) [Example 102]
3.6

What IC50 value was documented for this compound, CN1CCc2[nH]c(-c3ccnc(NC(=O)C(CC(F)F)c4ccccc4)c3)c(Nc3ccccc3)c2C1=O (stereo not shown) [Example 33] ?
6.15

Consider the compound CN1CCc2[nH]c(-c3ccnc(NC(=O)Cc4ccncc4)c3)c(Nc3ccccc3)c2C1=O [Example 64] and give its measured IC50.
2.65

Requested field: IC50. Item: CC(C(=O)Nc1cc(-c2[nH]c3c(c2Nc2ccccc2)C(=O)N(CC(C)(C)O)CC3)ccn1)c1ccc(F)cc1 (stereo not shown) [Example 24]
39.2

Look at this compound and give its reported IC50. CN1CCc2[nH]c(-c3ccnc(NC(=O)Cc4c(F)cc(F)cc4F)c3)c(Nc3ccccc3)c2C1=O [Example 164]
3.83

Tell me the measured IC50 of CC1(C)Cc2[nH]c(-c3ccnc(NC(=O)C(CN)c4ccc(F)cc4)c3)c(Nc3ccccc3)c2C(=O)N1 (single isomer, unassigned; enantiomer 2) [Example 141] , please.
57.8

Would you kindly share the measured IC50 for CC1Cc2[nH]c(-c3ccnc(NC(=O)Cc4ccc(F)cc4)c3)c(Nc3ccccc3)c2C(=O)N1C (single isomer, unassigned; (+)) [Example 89] ?
1.88

Please look up its IC50: Cc1ccccc1Nc1c(-c2ccnc(NC(=O)C(CC(F)F)c3ccc(F)cc3)c2)[nH]c2c1C(=O)NC(C)(C)C2 (single isomer, unassigned; enantiomer 1) [Example 136]
13.7

Item under review: CC(C(=O)Nc1cc(-c2[nH]c3c(c2Nc2ccccc2Cl)C(=O)NCC3)ccn1)c1ccc(F)cc1 (single isomer, unassigned) [Example 15] . Reported IC50?
42.5

====

Molecular target: human CSNK1A1 (Homo sapiens (Human))
Assay: CSNK1A1 Assay 2 (ADP-Glo, 1 μM ATP)
Format: biochemical
Conditions: substrate biotin-Ahx-KRRRAL-pS-VASLPGL, read-out: CSNK1A1 Assay 2 IC50 [mol/l] (median)
assay.readout: pIC50
Formally, pIC50 is defined as -log10 of the concentration c, with c in mol/L.

Quick check: pIC50 of CN(C)CCCC(C(=O)Nc1cc(-c2[nH]c3c(c2Nc2ccccc2)C(=O)N(C)CC3)ccn1)c1ccccc1 (single isomer, unassigned; (+)) [Example 60] ?
8.13

For the compound Cc1ccccc1Nc1c(-c2ccnc(NC(=O)C(CC(F)F)c3ccc(F)cc3)c2)[nH]c2c1C(=O)NC1(CCC1)C2 (single isomer, unassigned; enantiomer 2) [Example 145] , what pIC50 is on record?
7.97

For the compound CC1(C)Cc2[nH]c(-c3ccnc(NC(=O)C(CC(F)F)c4ccc(F)cc4)c3)c(Nc3cccc(F)c3Cl)c2C(=O)N1 (single isomer, unassigned; (+)) [Example 111] , what pIC50 is on record?
7.96

// lookup pIC50 for CN(C)CCCC(C(=O)Nc1cc(-c2[nH]c3c(c2Nc2ccccc2)C(=O)N(C)CC3)ccn1)c1ccccc1 (racemic) [Example 58]
7.91

What value of measured pIC50 is listed for CC(C(=O)Nc1cc(-c2[nH]c3c(c2Nc2ccccc2)C(=O)NC(C)(C)C3)ccn1)c1ccc(F)cc1 (stereo not shown) [Example 27] ?
8.11

Fill in: pIC50 of CN1CCc2[nH]c(-c3ccnc(NC(=O)C(CO)c4ccc(F)cc4)c3)c(Nc3ccccc3)c2C1=O (stereo not shown) [Example 17] is ___
7.96

Param item = CN1C(=O)c2c([nH]c(-c3ccnc(NC(=O)C(CC(F)F)c4ccc(F)cc4)c3)c2Nc2ccccc2)CC12CCC2 (racemic) [Example 160] ; retrieve measured pIC50.
7.88

The origin of these recorded values is patent US12227501B2.
